recorded.endpoint: melting point

[
  {
    "chemical.structure": "COCc1c(COc2ccc(OCC(=O)O)c(C)c2)noc1-c1ccc(C(F)(F)F)cc1",
    "melting point": "105 to 107 °C"
  }
]

# query: melting point of entry "Cc1c(COc2ccc(C=CC(=O)O)cc2F)noc1-c1ccc(C(F)(F)F)cc1"
261 to 262.5 °C

Requested read-out: melting point. Entry: "COCc1c(CSc2ccc(OCC(=O)O)c(C)c2)noc1-c1ccc(C(F)(F)F)cc1"
105 to 107 °C

Which measured melting point value corresponds to "Cc1cc(SCc2cc(-c3ccc(C(F)(F)F)cc3)on2)ccc1/C=C/C(=O)O" ?
179.5 to 181.5 °C

Value lookup for melting point; key = "Cc1cc(SCc2noc(-c3ccc(C(F)(F)F)cc3)c2C)ccc1Cc1noc(=O)[nH]1"
203 to 204.5 °C

Field request: melting point | item: "Cc1c(CSc2ccc3c(ccn3CC(=O)O)c2)noc1-c1ccc(C(F)(F)F)cc1"
139 to 141 °C

I'd like to know its melting point. The compound in question is "COC(=O)COc1ccc(C(=O)CCc2noc(-c3ccc(C(F)(F)F)cc3)c2C)cc1C"
133 to 134 °C

Query: melting point; subject: "Cc1cc(SCc2noc(-c3ccc(Cl)cc3)c2C)ccc1OCC(=O)O"
157 to 159 °C

Using the record for "Cc1c(CSc2ccc(-c3sccc3C(=O)O)cc2)noc1-c1ccc(C(F)(F)F)cc1" , report its melting point.
139 to 141 °C

====

Below, each entry is listed alongside its reported melting point.

Please review the following examples before continuing.
[
  {
    "chemical.structure": "Cc1cc(C(=O)CCc2noc(-c3ccc(C(F)(F)F)cc3)c2C)ccc1OCC(=O)O",
    "melting point": "191 to 194 °C"
  },
  {
    "chemical.structure": "Cc1c(COc2ccc3c(ccn3CC(=O)O)c2)noc1-c1ccc(C(F)(F)F)cc1",
    "melting point": "159 to 160 °C"
  }
]

Proceeding to the next compound to report its melting point.
melting point for "Cc1cc(SCc2noc(-c3ccc(C(F)(F)F)cc3)c2C)ccc1OCC(=O)O" ?
129 to 131 °C
